Provide the reported kon of each item.
Molecular target: T1, biotinylated CD3 epsilon:delta heterodimer protein (Amsbio AMS.CDD-H52WO) (Homo sapiens (Human), UniProt P07766 23-126; P04234 22-105)
T1 construct: also called CD3 heterodimer
Experiment: BLI (Octet), CD3 on SA sensor, Fab analyte;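 note: biolayer interferometry with biotinylated CD3 epsilon:delta captured on streptavidin sensors, Fab analyte at several concentrations up to 300 nM, 100 s association then 300 s dissociation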
Answers are plain numbers, in M⁻¹ s⁻¹.

huSP34.4.2 Fab-HF (Fab, V domains shown, also called HC4+LC2) VH: EVQLVESGGGLVQPGGSLRLSCAASGFTFSTYAMNWVRQAPGKGLEWVGRIRSKYNNYATYYAASVKGRFTISRDDSKNSLYLQMNSLRTEDTAVYYCVRHGNFGHSYVSWFAVWGQGTLVTVSS VL: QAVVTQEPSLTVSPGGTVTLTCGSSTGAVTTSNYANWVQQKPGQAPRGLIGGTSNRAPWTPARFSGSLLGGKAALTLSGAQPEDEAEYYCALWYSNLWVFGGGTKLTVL: 321000

Kindly review the next binder as well.
Quick check: kon of huSP34.9.6 Fab-HF (Fab, V domains shown, also called HC9+LC6) VH: EVQLVESGGGLVQPGGSLRLSCAASGFTFSDYAMNWVRQAPGKGLEWVGRTRSKYNSYATYYAASVKGRFTISRDDSKNSLYLQMNSLKTEDTAVYYCVRHGNFGNSYVSWFAVWGQGTLVTVSS VL: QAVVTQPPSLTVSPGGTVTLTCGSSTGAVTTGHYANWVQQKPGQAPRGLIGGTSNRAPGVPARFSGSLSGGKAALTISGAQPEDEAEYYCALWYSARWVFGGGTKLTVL ?
582000
